The measurements presented in this section are drawn from patent US11376232B2.

Experiment: Cytotoxicity on HepG2 cells
Details: human
valueType: IC50

Input: Could you please provide reported IC50 for COc1cccc(-c2ccc(NC(=O)C3=C(C(=O)O)CCC3)c(F)c2)c1 ? Thanks!
Output: > 50 µM
